Biological target: UniProtKB P35368
Sequence (P35368 whole entry): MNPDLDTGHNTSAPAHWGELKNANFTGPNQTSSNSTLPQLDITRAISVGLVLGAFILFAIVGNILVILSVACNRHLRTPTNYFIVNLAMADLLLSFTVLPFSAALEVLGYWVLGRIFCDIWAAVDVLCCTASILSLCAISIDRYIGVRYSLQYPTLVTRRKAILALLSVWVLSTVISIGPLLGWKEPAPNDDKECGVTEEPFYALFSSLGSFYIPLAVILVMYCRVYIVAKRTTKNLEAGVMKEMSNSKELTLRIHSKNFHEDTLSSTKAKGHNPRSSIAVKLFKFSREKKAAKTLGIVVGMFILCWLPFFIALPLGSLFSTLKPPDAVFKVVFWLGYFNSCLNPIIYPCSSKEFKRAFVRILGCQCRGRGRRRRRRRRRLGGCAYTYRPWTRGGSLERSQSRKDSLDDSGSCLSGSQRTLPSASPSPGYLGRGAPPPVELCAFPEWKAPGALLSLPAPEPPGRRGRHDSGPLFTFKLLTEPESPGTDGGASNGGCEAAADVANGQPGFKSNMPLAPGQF
Threshold check on Ki: strictly below 40 nM is fulfilled; on or above 40 nM is not fulfilled.

Examples from the recorded data:
>>> assigned_class("c1ccc2c(c1)[C@H]1C[C@@]1(c1c[nH]cn1)C21CC1 (stereo in doubt; (-)-10)")
"not fulfilled"
>>> assigned_class("CCC1(c2c[nH]cn2)Cc2ccc(F)cc2C1 (centres undefined)")
"not fulfilled"
>>> assigned_class("c1ccc2c(c1)[C@H]1C[C@@]1(c1c[nH]cn1)C21CC1 (stereo in doubt; 10)")
"fulfilled"
>>> assigned_class("CO[C@H]1c2ccccc2[C@H]2C[C@]21c1c[nH]cn1 (stereo in doubt; (-)-3)")
"not fulfilled"

Problem: For the compound CCC[C@H]1[C@@H]2c3ccccc3C[C@]12c1c[nH]cn1 , is Ki under 40 nM? fulfilled

The reported numbers originate from ChEMBL document CHEMBL1255566.
